target: UniProt Q15349; experiment: Inhibition of human Rsk2 at 1 uM relative to control; values are per cent of control
Sequence (Q15349 whole entry): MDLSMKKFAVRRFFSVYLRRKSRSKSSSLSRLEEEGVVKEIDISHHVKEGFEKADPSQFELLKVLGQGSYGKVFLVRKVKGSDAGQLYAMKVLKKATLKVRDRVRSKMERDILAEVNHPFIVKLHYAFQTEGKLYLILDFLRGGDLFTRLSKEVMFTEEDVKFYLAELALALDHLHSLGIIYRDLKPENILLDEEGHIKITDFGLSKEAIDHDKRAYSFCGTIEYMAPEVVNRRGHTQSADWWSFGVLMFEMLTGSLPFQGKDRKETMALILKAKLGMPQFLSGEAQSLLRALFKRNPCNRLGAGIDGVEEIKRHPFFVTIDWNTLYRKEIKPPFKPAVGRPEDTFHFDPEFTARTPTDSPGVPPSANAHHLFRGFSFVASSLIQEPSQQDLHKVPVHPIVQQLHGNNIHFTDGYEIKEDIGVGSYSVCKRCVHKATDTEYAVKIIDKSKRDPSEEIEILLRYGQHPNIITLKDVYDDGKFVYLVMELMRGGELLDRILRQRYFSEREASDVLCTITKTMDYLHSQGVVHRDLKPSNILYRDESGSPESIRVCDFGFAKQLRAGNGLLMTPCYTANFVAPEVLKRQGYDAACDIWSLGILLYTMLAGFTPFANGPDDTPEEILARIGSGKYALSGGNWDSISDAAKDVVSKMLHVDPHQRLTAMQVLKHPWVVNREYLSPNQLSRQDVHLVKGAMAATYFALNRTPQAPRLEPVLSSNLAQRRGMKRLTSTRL
readout label: residual activity (%)

>  <cpd smiles>
O=C1NC(=O)C2=C1c1cn(c3ccccc13)CCCc1ccc(c(N3CCCC3)n1)CCCn1cc2c2ccccc21

>  <target of assay>
UniProt Q15349

>  <readout value>
63

$$$$
>  <cpd smiles>
CN(C)c1cc2cc(n1)CCCn1cc(c3ccccc31)C1=C(C(=O)NC1=O)c1cn(c3ccccc13)CCC2

>  <target of assay>
UniProt Q15349

>  <readout value>
10

$$$$

(A) O=C1NC(=O)C2=C1c1cn(c3ccccc13)CCCc1cc(nc(N3CCCC3)c1)CCCn1cc2c2ccccc21
(B) CN(C)c1nc2ccc1CCCn1cc(c3ccccc31)C1=C(C(=O)NC1=O)c1cn(c3ccccc13)CC2
Higher residual activity between A and B ? The response must carry the label of the picked entry.
B
(B: 32%, A: 12%)
